Here's a roundup of pIC50 values tested on Tyrosine-protein kinase CSK (Homo sapiens, UniProt P41240), taken from various published works.
Give only the number. pIC50 is defined as minus log10 of concentration in molar units.

>>> recorded_number("CC1(C(=O)N2CCC[C@@H](c3nc(-c4ccc(C(=O)Nc5cc(C(F)(F)F)ccn5)cc4F)c4c(N)nccn34)C2)COC1")
6.60
>>> recorded_number("COc1cc(C(=O)Nc2cc(C(F)(F)F)ccn2)ccc1-c1nc([C@@H]2CC[C@H]3CCC(=O)N3C2)n2ccnc(N)c12")
6.64
>>> recorded_number("Nc1nccn2c([C@@H]3CC[C@H]4CCC(=O)N4C3)nc(-c3ccc(C(=O)Nc4cc(C(F)(F)F)ccn4)cc3)c12")
6.79
>>> recorded_number("Nc1nccn2c([C@@H]3CCCN(C4CCOCC4)C3)nc(-c3ccc(C(=O)Nc4cc(C(F)(F)F)ccn4)cc3F)c12")
6.34

Requested read-out pIC50, target or system Tyrosine-protein kinase CSK (Homo sapiens, UniProt P41240), entry CC(C)C(=O)N1CCC[C@@H](c2nc(-c3ccc(C(=O)Nc4cc(C(F)(F)F)ccn4)cc3F)c3c(N)nccn23)C1 5.94

Requested read-out pIC50, target or system Tyrosine-protein kinase CSK (Homo sapiens, UniProt P41240), entry CS(=O)(=O)c1cccc(Nc2nccc(Nc3c(Cl)ccc4c3OCO4)n2)c1 4.97

Requested read-out pIC50, target or system Tyrosine-protein kinase CSK (Homo sapiens, UniProt P41240), entry CNC(=O)c1cc(Oc2ccc(NC(=O)Nc3cc(C(C)(C)C)nn3-c3ccc4ncccc4c3)c(F)c2)ccn1 7.60

Requested read-out pIC50, target or system Tyrosine-protein kinase CSK (Homo sapiens, UniProt P41240), entry CN(C)CCOc1ccc2c(c1)CCn1nc(-c3ccc(Oc4ccccc4)cc3)c(C(N)=O)c1N2 8.77
